Target: CDK-2/Cyclin A (Homo sapiens, UniProt P24941)
Experiment: CDK-2 inhibition assay (coupled enzyme assay)
Details: 25 nM CDK-2/Cyclin A, 30° C.
measured_parameter: Ki

[
  {
    "compound": "COc1ccc2c(Nc3cc(C)n[nH]3)nc(Sc3ccc(NC(C)=O)cc3)nc2c1 [IIa-40]",
    "recorded_value": "1 to 20 µM"
  }
]

====

Molecular target: Aurora-2 (Homo sapiens, UniProt O14965)
Sequence (O14965 1-403): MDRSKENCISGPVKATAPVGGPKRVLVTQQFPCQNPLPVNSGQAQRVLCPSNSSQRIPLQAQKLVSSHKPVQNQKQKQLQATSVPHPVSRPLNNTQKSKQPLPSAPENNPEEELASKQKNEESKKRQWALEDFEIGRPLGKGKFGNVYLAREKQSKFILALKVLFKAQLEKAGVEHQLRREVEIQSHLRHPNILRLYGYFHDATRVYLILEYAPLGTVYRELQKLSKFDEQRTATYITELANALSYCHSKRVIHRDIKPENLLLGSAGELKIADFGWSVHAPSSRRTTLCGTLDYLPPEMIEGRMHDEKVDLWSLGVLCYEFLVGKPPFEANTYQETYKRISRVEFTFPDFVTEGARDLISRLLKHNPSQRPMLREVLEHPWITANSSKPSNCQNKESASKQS
measured_parameter: Ki

[
  {
    "molecule": "COc1ccc2c(Nc3cc(C)n[nH]3)nc(Sc3ccc(NC(C)=O)cc3)nc2c1 [IIa-40]",
    "recorded_value": "< 100 nM"
  }
]

====

Target: GSK-3β (AA 1-420) (Homo sapiens)
Sequence (P49841 whole entry, the tested form may be a part): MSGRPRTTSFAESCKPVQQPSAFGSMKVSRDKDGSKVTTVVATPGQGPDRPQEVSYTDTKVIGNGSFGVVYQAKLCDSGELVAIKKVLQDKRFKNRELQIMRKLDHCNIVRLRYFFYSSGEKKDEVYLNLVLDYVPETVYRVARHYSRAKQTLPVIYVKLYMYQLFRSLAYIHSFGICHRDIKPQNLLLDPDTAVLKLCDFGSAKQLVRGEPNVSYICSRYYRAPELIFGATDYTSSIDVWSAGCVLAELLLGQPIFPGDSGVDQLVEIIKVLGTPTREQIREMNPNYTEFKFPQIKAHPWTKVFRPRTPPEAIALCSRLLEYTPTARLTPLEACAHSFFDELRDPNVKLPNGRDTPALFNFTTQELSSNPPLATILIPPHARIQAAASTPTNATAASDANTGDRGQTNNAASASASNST
measured_parameter: Ki

[
  {
    "structure_string": "COc1ccc2c(Nc3cc(C)n[nH]3)nc(Sc3ccc(NC(C)=O)cc3)nc2c1",
    "recorded_value": "1 to 7 µM"
  }
]
